test system: NCI-H460; experiment: NCI tumour cell line growth inhibition, 48 h
Active and inactive are the calls of the source. Rule as the data show it: active = GI50 up to about 1.1 µM and inactive = higher.
Classes used: active, inactive

>>> group_label("CCCCCCc1nn2c(-c3ccncc3)nnc2s1")
"inactive"
>>> group_label("CC(C)C(Sc1nc(-c2ccccc2)c(-c2ccccc2)[nH]1)C(=O)NN (centres undefined)")
"inactive"
>>> group_label("COc1c2c(c(OC)c3c1c(=O)c1ccccc1n3C)OCO2")
"inactive"
>>> group_label("O=c1c2cccc3cccc(c4n1CCCN=4)c32")
"inactive"
>>> group_label("O=S(=O)(O)CCCC1S(=O)(=O)OCCOS1(=O)=O")
"inactive"
>>> group_label("COP1(=O)CC2C(Cl)(Cl)C2(C)C1 (centres undefined)")
"inactive"
>>> group_label("OC1COC2CC(Nc3ccccn3)OC12 (centres undefined)")
"inactive"
>>> group_label("CCC12CN(C(=O)OC)C3C(Br)C1CCC(=O)C32 (centres undefined)")
"inactive"
>>> group_label("Cc1ccc2nc(-c3ccc(N)c(I)c3)sc2c1")
"inactive"
>>> group_label("CC(C)=CCC[C@@H](C)/C=C/C=C(\\C)C(=O)CC[C@@H]1CC[N@+]2(C)CCCC[C@H]12")
"inactive"
>>> group_label("O=[N+]([O-])c1cccc2nc3ccccc3c(NCCCN3CCOCC3)c12")
"active"
>>> group_label("S=c1[nH]c2ccc(Br)cc2c(=S)n1-c1ccccc1")
"inactive"
>>> group_label("O=[N+]([O-])c1cc(-[n+]2cc([O-])on2)ccc1F")
"inactive"
>>> group_label("O=C(C/N=C(\\CN(c1ccccc1)c1ccccc1)Oc1c(Cl)cc(Cl)cc1Cl)n1cnc2ccccc21")
"inactive"
>>> group_label("CC(CCC(=O)O)C(=O)O (centres undefined)")
"inactive"
>>> group_label("CC1OC(=O)N(CCCC=C2SCCCS2)C1=O (centres undefined)")
"inactive"
>>> group_label("[N-]=[N+]=NC1CC(n2cc(COCC(F)(F)F)c(=O)[nH]c2=O)OC1CO (centres undefined)")
"inactive"
>>> group_label("Cc1ccc2cccc3c2c1CC1(C3=O)S(=O)(=O)OCCOS1(=O)=O")
"inactive"
>>> group_label("C[Si](C)(C)OC1(C#N)c2ccccc2CCCC12CCCC2 (centres undefined)")
"inactive"
>>> group_label("COC(=O)c1ccccc1NC(=O)C(=O)NNC(=O)c1ccncc1")
"inactive"
>>> group_label("C1COC2SC3=C(SC(=C4SC5=C(SCCS5)S4)S3)SC2O1 (centres undefined)")
"inactive"
>>> group_label("Cn1c2c(c3ccccc31)CCN(CCCN1CCN(c3cccc(Cl)c3)CC1)C2=O")
"inactive"
>>> group_label("COc1ccc(/C(Cl)=C(\\C=O)c2ccc(OC)cc2)cc1")
"inactive"
>>> group_label("NC(=O)N1N=C2c3ccccc3SC[C@H]2[C@@H]1c1ccccc1")
"inactive"

----------
test system: SK-MEL-2; assay: NCI tumour cell line growth inhibition, 48 h
Activity calls are given as the source filed them. Rule as the data show it: active = GI50 up to about 1.1 µM and inactive = higher.
Metric Name: GI50

>>> measured_result("CCOC(=O)/C=C1/Oc2ccccc2C1(C)O (stereo not given)")
"> 100 µM (inactive)"
>>> measured_result("COc1cc2nc(-c3cccs3)nc(Cl)c2cc1OC")
"> 100 µM (inactive)"
>>> measured_result("O=[N+]([O-])c1ccc(C2=Nc3ccccc3SC(c3ccccc3)C2)cc1 (stereo not given)")
"18.4 µM (inactive)"
>>> measured_result("CC1OC(=O)N(CCCC=C2SCCCS2)C1=O (stereo not given)")
"> 100 µM (inactive)"
>>> measured_result("CC(CO)[C@H]1OC(=O)C=C2[C@@]13O[C@@H]3[C@H]1OC(=O)[C@@]3(C)[C@H]4O[C@H]4C[C@@]2(C)[C@@H]13 (stereo not given in full)")
"2.07 µM (inactive)"
>>> measured_result("O=c1c(=O)c2c(Br)sc(Br)c2c1=O")
"20.8 µM (inactive)"
>>> measured_result("CCOC(=O)c1ccc(Nc2c3c(nc4ccccc24)CCCC3)cc1")
"> 86.9 µM (inactive)"
>>> measured_result("Cc1nc(N)c(N2CCN(C#N)CC2)c(O)n1")
"> 100 µM (inactive)"
>>> measured_result("CCCN(C(=O)c1ccccc1)C(C#N)c1ccc(C(C#N)N(CCC)C(=O)c2ccccc2)cc1 (stereo not given)")
"> 100 µM (inactive)"
>>> measured_result("CC(Cc1ccc(O)c(O)c1)C(C)Cc1ccc(O)c(O)c1 (stereo not given) [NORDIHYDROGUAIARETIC ACID]")
"18.5 µM (inactive)"
>>> measured_result("COC(=O)[C@H](Cc1c[nH]c2ccccc12)NP(=O)(O)OCC1C=CC(n2cc(C)c(=O)[nH]c2=O)O1 (stereo not given in full)")
"> 100 µM (inactive)"
>>> measured_result("O=C1NC(=S)N/C1=C/c1c(-c2ccccc2)[nH]c2ccccc12")
"13.2 µM (inactive)"
>>> measured_result("COc1c(-c2nc3ccc(N4CCN(C)CC4)nc3[nH]2)cc(OC)c2[nH]c(CO)nc12")
"32 µM (inactive)"
>>> measured_result("Cc1ccc(C2=C(c3ccccc3)C(=O)C(c3ccccc3)=C2c2ccc(C)cc2)cc1")
"6.79 µM (inactive)"
>>> measured_result("COc1cc(C(=O)O)cc2c1[nH]c1ccccc12")
"> 25 µM (inactive)"
>>> measured_result("NC(Cc1ccc(S(=O)(=O)O)cc1)C(=O)NC(CCCCNC(=O)NCCCCC(NC(=O)C(N)Cc1ccc(S(=O)(=O)O)cc1)C(=O)NC(Cc1ccc(S(=O)(=O)O)cc1)C(=O)O)C(=O)NC(Cc1ccc(S(=O)(=O)O)cc1)C(=O)O (stereo not given)")
"> 100 µM (inactive)"
>>> measured_result("CC#CCCN(CC#N)Cc1ccccc1")
"> 100 µM (inactive)"
>>> measured_result("O=C1C2=C(CCCC2)Nc2cccc3ncn1c23")
"> 100 µM (inactive)"
>>> measured_result("[N-]=[N+]=NC(c1cn(C2CC(O)C(CO)O2)c(=O)[nH]c1=O)C(Cl)Br (stereo not given)")
"> 100 µM (inactive)"
>>> measured_result("Nc1n[nH]c(CCCCCCCc2nnc(N)[nH]2)n1")
"> 100 µM (inactive)"

----------
system: CCRF-CEM; test: NCI tumour cell line growth inhibition, 48 h
The source made the active and inactive calls. No stated cut-off is given here; in the data, active = GI50 up to about 1.1 µM and inactive = higher.
Recorded GI50, one value per entry.
Metric Name: GI50

>>> measured_result("CSc1ccc(NC(=O)C2c3[nH]c4ccccc4c3C3CCC(C(C)(C)C)CC3C2C(=O)O)cc1 (stereo unspecified)")
"10.7 µM (inactive)"
>>> measured_result("CC(=O)/C=C1\\Nc2sc(C)c(C)c2C(=O)S1")
"21.7 µM (inactive)"
>>> measured_result("CC1(C)OC[C@@H](/C=C\\CCO[Si](c2ccccc2)(c2ccccc2)C(C)(C)C)N1C(=O)c1ccccc1")
"6.21 µM (inactive)"
>>> measured_result("CC(=O)Oc1ccn2nc(C)c(Br)c2c1Br")
"21.6 µM (inactive)"
>>> measured_result("c1ccc2c(CNCCCCCCNCc3cccc4ccccc34)cccc2c1")
"3.06 µM (inactive)"
>>> measured_result("O=C(CCCN1CCC2(CC1)C(=O)NC(=O)N2c1ccccc1)c1ccc(F)cc1")
"> 100 µM (inactive)"
>>> measured_result("O=C(O)c1ccccc1/C=N/N=C1NCCCCN1")
"> 100 µM (inactive)"
>>> measured_result("COC(=O)[C@H](Cc1c[nH]c2ccccc12)NP(=O)(O)OCC1C=CC(n2cc(C)c(=O)[nH]c2=O)O1 (stereo partly specified)")
"> 100 µM (inactive)"
>>> measured_result("NS(=O)(=O)c1ccc(/N=N/c2ccc(O)c(O)c2)cc1")
"3.56 µM (inactive)"
>>> measured_result("CC(C)=CC(=O)Cc1nc2cc(C)c(C)cc2[nH]c1=O")
"> 100 µM (inactive)"
>>> measured_result("COC1CCN(N(C)C)O1 (stereo unspecified)")
"> 100 µM (inactive)"

----------
test system: HCC 2998; experiment: NCI tumour cell line growth inhibition, 48 h
Active and inactive are the calls of the source. Cut-off read from the data, not from the text of the source: active = GI50 up to about 1.1 µM and inactive = higher.
Classes used: yes = active, no = inactive

>>> group_label("COC(=O)C1Cc2c([nH]c3ccccc23)-c2[nH]c3ccccc3c2CC(NC(C)=O)C(=O)N2CCCC2C(=O)N1 (centres undefined)")
"no"
>>> group_label("C=C1c2nc3ccccc3n2C=C(c2ccccc2)N1c1ccc(Cl)cc1")
"no"
>>> group_label("CC(Cc1ccc(O)c(O)c1)C(C)Cc1ccc(O)c(O)c1 (centres undefined) [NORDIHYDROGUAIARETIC ACID]")
"no"
>>> group_label("Cc1ccc(Nc2nc(=O)[nH]c(=O)[nH]2)cc1N=[N+]=[N-]")
"no"
>>> group_label("C=CC(Br)(CBr)CCC(Br)C(C)(C)Cl (centres undefined)")
"no"
>>> group_label("O=C1/C(=C/c2ccc([N+](=O)[O-])cc2)C(=O)N(c2ccccc2)C1c1ccccc1 (centres undefined)")
"no"
>>> group_label("c1ccc2cc(CNCCCCNCCCNCc3ccc4ccccc4c3)ccc2c1")
"yes"
>>> group_label("CCOC(=O)N1CCC(=O)C[C@@H]1C/C=C/P1(=O)O[C@H](c2ccccc2)C(C)N1C(C)C (some centres undefined)")
"no"
>>> group_label("COC(=O)[C@@H](NC(=O)[C@H](N)Cc1ccc(N(CCCl)CCCl)cc1)C(C)C")
"no"

// data source = ChEMBL document CHEMBL1201862
